B1: TPR t1 (parent)
chain: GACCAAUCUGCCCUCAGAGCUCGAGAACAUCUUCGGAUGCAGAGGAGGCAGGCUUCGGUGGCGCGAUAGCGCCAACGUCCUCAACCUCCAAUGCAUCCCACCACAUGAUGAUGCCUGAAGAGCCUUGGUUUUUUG

# Variants of: B1
# Measurement notes: polymerase ribozyme fitness, log enrichment relative to wild type (log ratio); higher = more active; in vitro selection for triplet polymerase activity
Param threshold (-2) applies to polymerase ribozyme fitness (log ratio); output Condition met when value >= threshold, Condition not met when value < threshold.

| Mutation annotation | Category label |
| --- | --- |
| A91G C101U G110A | Condition not met |
| G10C G61A G93C | Condition met |
| C15G G47U U55C U78C C82U C86A G120U | Condition not met |
| C15U C62G C85A | Condition not met |
| C89A C124A | Condition met |
| G69A A84U C94U | Condition not met |
| C3A U14G C62A A119U G120A | Condition not met |
| G42A A74U A119G | Condition met |
| C13G C70A | Condition not met |
| G36C | Condition met |
| C56U G69C | Condition not met |
| C15U G17U A74C U78G C80U C115A | Condition not met |
| C49A G128C | Condition not met |
| A29U G93A | Condition not met |
| A50G A83C C123U | Condition met |
| U9C G19C | Condition not met |
| C4A C13U | Condition met |
| G52A C70U G77A U78G C79U G117U | Condition not met |
| U54A C76U | Condition met |
| G93A C123G | Condition met |
| A2U A5C A26G U54A | Condition not met |
| G44C A46C U54A C88G C97U G113C | Condition not met |

All values here come from the RNAGym collection of RNA variant scans (doi:10.1073/pnas.2313332121).
